Attribution: ChEMBL document CHEMBL1134783

Study target: D(2) dopamine receptor (Homo sapiens, UniProt P14416)
Sequence (P14416 whole entry): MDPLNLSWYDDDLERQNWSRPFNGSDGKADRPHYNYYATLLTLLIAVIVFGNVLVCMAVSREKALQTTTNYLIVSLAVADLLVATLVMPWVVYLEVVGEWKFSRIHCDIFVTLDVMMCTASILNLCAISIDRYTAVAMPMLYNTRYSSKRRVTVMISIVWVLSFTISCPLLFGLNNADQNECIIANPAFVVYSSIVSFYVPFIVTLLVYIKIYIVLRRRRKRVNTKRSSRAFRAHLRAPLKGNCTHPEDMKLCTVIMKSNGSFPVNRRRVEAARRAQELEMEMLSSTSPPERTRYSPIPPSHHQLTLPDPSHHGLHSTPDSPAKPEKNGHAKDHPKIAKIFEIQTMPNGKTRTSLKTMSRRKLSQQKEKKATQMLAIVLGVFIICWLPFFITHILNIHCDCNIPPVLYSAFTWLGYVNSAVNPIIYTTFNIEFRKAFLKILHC
Assay comment: Binding affinity against dopamine receptor D2 using [3H]spiperone radioligand in CHO cells
Quantity kind: Ki

* Cc1ccc(S(=O)(=O)n2cc3c4c(cccc42)[C@H](O)[C@@H](N(C)C)C3)cc1 | > 1700 nM
* CN(C)CCc1cn(C(=O)c2ccccc2)c2ccc(O)cc12 | > 2200 nM
* NCCc1cccc2c1ccn2S(=O)(=O)c1ccccc1 | > 1700 nM

* * *

Heads up, these compounds all have Ki values measured for 5-hydroxytryptamine receptor 2A (Rattus norvegicus, UniProt P14842).
Quantity kind: Ki (nM)

- Cc1ccc(S(=O)(=O)n2cc3c4c(cccc42)[C@H](O)[C@@H](N(C)C)C3)cc1: 320
- CN(C)CCc1cccc2c1cc(C(=O)c1ccccc1)n2S(=O)(=O)c1ccccc1: 6.6
- CN(C)CCc1cccc2c1ccn2S(=O)(=O)c1ccccc1: 18

* * *

// values below are reported Ki
Study target: UniProt:P50406
Sequence (P50406 whole entry): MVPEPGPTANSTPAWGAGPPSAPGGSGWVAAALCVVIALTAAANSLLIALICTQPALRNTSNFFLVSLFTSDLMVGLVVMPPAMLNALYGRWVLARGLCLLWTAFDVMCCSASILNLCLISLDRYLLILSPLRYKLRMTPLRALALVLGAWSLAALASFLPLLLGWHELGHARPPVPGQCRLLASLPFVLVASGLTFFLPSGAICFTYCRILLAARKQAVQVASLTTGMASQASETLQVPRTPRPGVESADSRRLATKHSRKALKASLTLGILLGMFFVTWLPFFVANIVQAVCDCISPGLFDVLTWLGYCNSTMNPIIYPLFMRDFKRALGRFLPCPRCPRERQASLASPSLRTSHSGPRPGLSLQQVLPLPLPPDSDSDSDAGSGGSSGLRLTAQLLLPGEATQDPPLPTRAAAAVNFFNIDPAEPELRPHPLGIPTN
Assay comment: Binding affinity as displacement of [3H]5-HT binding to 5-hydroxytryptamine 6 receptor in HeLa cells.
Assay type: cell-based
Quantity kind: Ki (nM)

* COc1ccc2c(c1)c(CCN(C)C)c(C)n2S(=O)(=O)c1ccccc1 | 12
* Cc1ccc(S(=O)(=O)n2cc3c4c(cccc42)[C@H](O)[C@@H](N(C)C)C3)cc1 | 7.2
* COc1ccc2c(c1)c(CCN(C)C)cn2S(=O)(=O)c1ccc(Cl)cc1 | 17
* COc1ccc2c(c1)c(CCN(C)C)cn2S(=O)(=O)c1cccs1 | 8.3
